Target: T1, hTREM2 (Homo sapiens, UniProt Q9NZC2)
T1 construct: The ecto domain (residues 19-172) of TREM2 (UniProtKB—Q9NZC2); secretion signal of mouse Ig kappa chain V-III (P01661 aa 1-20) (N); made in house; host or cells: Expi293F
T1 sequence (Q9NZC2 19-172): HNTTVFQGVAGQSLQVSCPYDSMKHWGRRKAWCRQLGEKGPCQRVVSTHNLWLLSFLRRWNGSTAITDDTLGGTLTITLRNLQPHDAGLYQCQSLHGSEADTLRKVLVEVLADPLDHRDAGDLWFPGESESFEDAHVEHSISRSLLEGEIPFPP
Assay: Octet binning (competition with R&D antibody on biotinylated TREM2-His)
Format: binding
Details: epitope bin, 100 nM
quantity name: Bin by Octet

What value of Bin by Octet has been reported for the following molecule? 26D2.D1: anti-TREM2 antibody clone; VH SEQ ID NO:16, VL SEQ ID NO:27 (antibody, V domains shown) VH: EVQLQQSGPELVKPGASVKMSCKASGYTFTSYVMHWVKQKPGQGLEWIGYINPYTDGTKYNEKFKGKATLTSDKSSSTAYMDLSSLTSEDSAVYYCARGEVRRYALDYWGQGTSVTVSS VL: DIQMTQSSSSFSVSLGDRVTITCKASEDIYNRLAWYQQKPGNAPRLLISGATSLETGVPSRFSGSGSGKDYTLSITSLQTEDVATYYCQQYWSTPWTFGGGTKLEIK 1-2
